Field log10 of IC50: reported value for Cytochrome P450 11B1, mitochondrial (Homo sapiens, UniProt P15538); entries drawn from several documents.
# log10 transformed; quantity=IC50; unit=µM

Example entries and their recorded answers appear below.
N#Cc1cccc([S+]([O-])c2c(O)c(-c3cccnc3)cc3ccccc23)c1 (stereo unspecified) :: 0.93
COc1cccc([S+]([O-])c2c(O)c(-c3cccnc3)cc3ccccc23)c1 (stereo unspecified) :: 0.86
COc1cccc(S(=O)(=O)N2CCc3cc(-c4cccnc4)ccc32)c1 :: -0.95
Cc1ccncc1-c1ccc2cc(C#N)ccc2c1 :: -1.28
O=S(=O)(c1ccc(C(F)(F)F)cc1)N1CCCc2cc(-c3cccnc3)ccc21 :: 0.09

Please report log10 of IC50 for every entry that follows.
1. [O-][S+](c1cccc(OC(F)(F)F)c1)c1c(O)c(-c2cccnc2)cc2ccccc12 (stereo unspecified)
2. COC(=O)c1cncc(-c2ccc3cc(OC)ccc3c2)c1
3. c1ccc(CCOc2cccnc2-c2ccncc2)cc1

1: 0.76; 2: -1.82; 3: 0.43

Which log10 of IC50 is listed for [O-][S+](c1ccc(Cl)cc1)c1c(O)c(-c2cccnc2)cc2ccccc12 (stereo unspecified) ?
0.95

====

Biological target: Cytochrome P450 11B1, mitochondrial (Homo sapiens, UniProt P15538)
Sequence (P15538 whole entry): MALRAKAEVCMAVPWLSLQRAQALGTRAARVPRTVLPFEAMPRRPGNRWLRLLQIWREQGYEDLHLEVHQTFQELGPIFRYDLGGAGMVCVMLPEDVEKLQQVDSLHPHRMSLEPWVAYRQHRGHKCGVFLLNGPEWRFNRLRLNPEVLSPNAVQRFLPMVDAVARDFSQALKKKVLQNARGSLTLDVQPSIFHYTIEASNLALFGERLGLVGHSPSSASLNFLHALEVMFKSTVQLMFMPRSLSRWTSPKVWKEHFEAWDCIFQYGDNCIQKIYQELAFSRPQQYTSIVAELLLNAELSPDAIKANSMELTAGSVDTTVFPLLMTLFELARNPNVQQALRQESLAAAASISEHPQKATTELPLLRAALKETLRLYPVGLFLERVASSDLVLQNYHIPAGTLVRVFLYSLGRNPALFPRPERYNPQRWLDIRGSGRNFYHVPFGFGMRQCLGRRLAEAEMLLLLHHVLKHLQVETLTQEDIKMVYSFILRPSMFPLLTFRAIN
Field pIC50: reported value for Cytochrome P450 11B1, mitochondrial (Homo sapiens, UniProt P15538); entries drawn from several documents.
Answers are plain numbers, as −log10 of the molar value.

O=S(=O)(c1cccc(Cl)c1)N1CCCc2cc(-c3cccnc3)ccc21 :: 7.21
Nc1ccc(-c2ccc(Cc3ccncc3)cc2)cc1 :: 6.28
[O-][S+](c1cccc(F)c1)c1c(O)c(-c2cccnc2)cc2ccccc12 (stereo unspecified) :: 5.18

Please report pIC50 for every entry that follows.
1. COc1ccc(-c2cccnc2)c(OCCc2ccccc2)c1
2. COc1ccc2cc(-c3cnccc3N)ccc2c1

1: 6.74; 2: 5.82

====

Field IC50: reported value for Cytochrome P450 11B1, mitochondrial (Homo sapiens); entries drawn from several documents.
Biological target: Cytochrome P450 11B1, mitochondrial (Homo sapiens)
Sequence (P15538 whole entry): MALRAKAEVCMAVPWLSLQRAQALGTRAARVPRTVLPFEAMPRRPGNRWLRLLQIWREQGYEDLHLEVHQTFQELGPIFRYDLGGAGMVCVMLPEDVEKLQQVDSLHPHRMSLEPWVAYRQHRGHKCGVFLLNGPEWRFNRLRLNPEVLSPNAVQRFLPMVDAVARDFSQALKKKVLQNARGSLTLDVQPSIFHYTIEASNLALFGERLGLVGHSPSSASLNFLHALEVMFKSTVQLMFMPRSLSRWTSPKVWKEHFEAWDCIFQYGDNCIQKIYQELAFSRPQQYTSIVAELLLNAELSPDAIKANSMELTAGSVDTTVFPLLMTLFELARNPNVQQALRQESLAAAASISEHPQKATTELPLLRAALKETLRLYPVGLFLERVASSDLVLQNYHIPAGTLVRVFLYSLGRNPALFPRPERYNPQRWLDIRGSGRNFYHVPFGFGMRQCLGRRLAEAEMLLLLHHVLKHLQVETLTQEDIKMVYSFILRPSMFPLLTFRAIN
One number for each entry, in nM.

COc1ccc(-c2cc(Cn3ccnc3)c3ccc4[nH]ccc4c3n2)cc1 :: 960
c1ccc(-c2cc(Cn3ccnc3)c3ccc4[nH]ccc4c3n2)cc1 :: 230
COCc1ccncc1-c1ccc2cc(OC)ccc2c1 :: 435
COc1ccc2cc(-c3cncc(CC(=O)O)c3)ccc2c1 :: 37800
COc1cccc(S(=O)(=O)N2CCc3cc(-c4cccnc4)cnc32)c1 :: 587
O=[N+]([O-])c1ccc(Cc2ccncc2)c(OCCc2ccccc2)c1 :: 6
Oc1ccc(-c2ccc(Cc3ccncc3)cc2)cc1 :: 251
[O-][S+](c1ccccc1OC(F)(F)F)c1c(O)c(-c2cccnc2)cc2ccccc12 (centres undefined) :: 4710

Please report IC50 for every entry that follows.
1. CCOc1ccc2cc(-c3cccnc3)ccc2c1
2. COc1ccc2ccc(-c3cccnc3)c(Cl)c2c1
3. c1cc(Cc2ccc(-c3ccc4[nH]ccc4c3)cc2)ccn1
4. COc1ccc2cc(-c3cncc4ccccc34)c(C)cc2c1
5. COc1cccc(S(=O)(=O)N2CCCc3cc(-c4cccnc4)ccc32)c1
6. O=S(=O)(c1ccc(Cl)cc1)N1CCCc2cc(-c3cccnc3)ccc21
7. CN1C(=O)CCc2cc(-c3cncc4ccccc34)ccc21

1: 5420; 2: 2720; 3: 469; 4: 843; 5: 28; 6: 137; 7: 6.9

Please report IC50 for every entry that follows.
1. COc1ccc2cc(-c3cncc(C(N)=O)c3)ccc2c1
2. O=S(=O)(c1cccc(C(F)(F)F)c1)N1CCCc2cc(-c3cccnc3)ccc21
3. O=C1CCc2cc(-c3cncc4ccccc34)ccc2N1
4. COc1cccc(S(=O)(=O)N(C)c2ccc(-c3cccnc3)cc2)c1
5. c1cncc(-c2ccc3c4c(cccc24)CC3)c1
6. COc1cc2c(cc1-c1cccnc1)CCC(=O)N2
7. O=C1CSc2cc(-c3cccnc3)ccc2N1
8. c1cc(Cc2ccc(-c3ccsc3)cc2)ccn1

1: 41600; 2: 309; 3: 33; 4: 68; 5: 2900; 6: 2490; 7: 525; 8: 415

Which IC50 is listed for "CCn1ccc2c3nc(-c4ccccc4)cc(Cn4ccnc4)c3ccc21" ?
250

====

Target: Cytochrome P450 11B1, mitochondrial (Homo sapiens, UniProt P15538)
Sequence (P15538 whole entry): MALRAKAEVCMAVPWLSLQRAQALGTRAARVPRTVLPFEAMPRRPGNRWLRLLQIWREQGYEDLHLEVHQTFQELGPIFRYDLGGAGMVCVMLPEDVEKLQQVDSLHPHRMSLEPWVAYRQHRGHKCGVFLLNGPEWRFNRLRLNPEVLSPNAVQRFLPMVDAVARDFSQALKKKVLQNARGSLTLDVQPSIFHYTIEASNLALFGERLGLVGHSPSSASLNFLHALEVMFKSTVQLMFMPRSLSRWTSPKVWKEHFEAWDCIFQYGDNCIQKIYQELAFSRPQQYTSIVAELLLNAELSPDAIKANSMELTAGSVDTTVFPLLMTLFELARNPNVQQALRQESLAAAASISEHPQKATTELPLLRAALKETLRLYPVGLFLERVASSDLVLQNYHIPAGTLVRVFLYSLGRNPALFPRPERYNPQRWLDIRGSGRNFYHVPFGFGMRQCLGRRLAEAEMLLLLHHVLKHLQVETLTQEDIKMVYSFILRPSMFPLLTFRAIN
pIC50: −log10 of the molar value.
Field pIC50: reported value for Cytochrome P450 11B1, mitochondrial (Homo sapiens, UniProt P15538); entries drawn from several documents.
# binarize pIC50: threshold 7 inclusive, high side MET, low side NOT MET

Look over these answered cases.
O=C1CCc2cc(-c3cccnc3)ccc2C1 :: NOT MET
c1cncc(-c2ccc3c(c2)CCCC3)c1 :: NOT MET
CCn1ccc2c3c(Cn4cncn4)cc(-c4ccccc4)nc3ccc21 :: NOT MET
COc1cccc(S(=O)(=O)N2CCCc3cc(-c4ccncc4)ccc32)c1 :: NOT MET
N#Cc1ccc(-c2cccnc2)c(OCCc2ccccc2)c1 :: MET

Reported pIC50 reaches at least 7 for "CN1C(=O)CCc2cc(-c3cccnc3)ccc21" ?
NOT MET

Quick one: "O=C(Nc1ccc(-c2cccnc2)c(OCc2ccccc2)c1)c1ccc(F)cc1"
NOT MET

Quick one: "O=c1c2ccccc2oc2c(Br)ccc(Cn3ccnc3)c12"
MET

Quick one: "COc1cccc(S(=O)(=O)N2CCCc3cc(Cc4cccnc4)ccc32)c1"
MET

====

Target sequence: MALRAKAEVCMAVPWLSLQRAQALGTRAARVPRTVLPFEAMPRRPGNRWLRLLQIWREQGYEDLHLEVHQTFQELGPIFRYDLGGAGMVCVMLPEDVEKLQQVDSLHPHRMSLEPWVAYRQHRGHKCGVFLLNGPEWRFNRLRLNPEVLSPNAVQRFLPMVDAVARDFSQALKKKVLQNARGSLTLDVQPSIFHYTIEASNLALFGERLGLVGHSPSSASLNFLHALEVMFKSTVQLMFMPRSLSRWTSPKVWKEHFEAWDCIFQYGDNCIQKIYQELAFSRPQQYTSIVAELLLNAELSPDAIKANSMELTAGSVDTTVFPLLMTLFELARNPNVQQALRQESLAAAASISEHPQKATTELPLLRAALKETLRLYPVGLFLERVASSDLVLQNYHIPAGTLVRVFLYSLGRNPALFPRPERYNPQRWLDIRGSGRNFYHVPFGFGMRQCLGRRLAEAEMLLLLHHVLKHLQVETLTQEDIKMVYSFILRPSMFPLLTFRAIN
Field pIC50: reported value for the protein given by its sequence; entries drawn from several documents.
One number for each entry, as −log10 of the molar value.

S=C1CCc2cc(-c3cccnc3)cc(Cl)c2N1 :: 6.11

Please report pIC50 for every entry that follows.
1. O=[N+]([O-])c1ccc(-c2ccncc2)c(OCc2ccccc2)c1
2. CN1CCOc2cc(-c3cccnc3)ccc21

1. 7.30
2. 5.22

Please report pIC50 for every entry that follows.
1. O=C(C1CC1)N1CCc2cc(-c3cncc4ccccc34)ccc21
2. [O-][S+](c1cc(Cl)cc(Cl)c1)c1c(O)c(-c2cccnc2)cc2ccccc12 (configuration not stated)
3. Oc1ccc(-c2ccc(Cc3ccncc3)cc2)cc1F
4. O=c1c2ccccc2oc2cccc(Cn3ccnc3)c12
5. [O-][S+](c1cccc(C(F)(F)F)c1)c1c(O)c(-c2cccnc2)cc2ccccc12 (configuration not stated)
6. CCC1CC(c2cccnc2)=Cc2ccccc21 (configuration not stated)
7. COc1ccc2cc(-n3ccnc3)ccc2c1
8. FC(F)(F)c1ccc(-c2ccncc2)c(OCCc2ccccc2)c1

5.43
5.33
6.07
7.00
5.18
5.79
6.07
7.59

Which pIC50 is listed for "N#Cc1ccc(-c2ccncc2)c(OCCc2ccccc2)c1" ?
7.92
